Record form. Attribute: log10 ED50. Fill in for each entry.
# Test system: compound 48/80-induced lethality
# run.description: Protection of rats from compound 48/80-induced lethality
# Type: in vivo, rats of an inbred Wistar strain
# measurement.conditions: Rattus norvegicus, 4 h, read-out: Compound 48/80 lethality test in rats ED50, s.c. or p.o. 1 h before compound 48/80 0.5 mg/kg i.v.; protection of 50% of animals, survival after 4 hours
Form field - Quantity: ED50; Unit: mg/kg; Scale: log10

q: Please report the recorded log10 ED50 for Fc1ccc(Cn2c(CC3CCN(CCNc4cnccn4)CC3)nc3ccccc32)cc1 .
a: -2.00

q: Please report the recorded log10 ED50 for COc1ccc(CCN2CCC(Cc3nc4cccnc4n3Cc3ccco3)CC2)cc1 .
a: -1.70

q: Please report the recorded log10 ED50 for Cc1nc2ccccn2c(=O)c1CCN1CCC(Cc2nc3cnccc3n2Cc2ccc(F)cc2)CC1 .
a: -0.80

q: Please report the recorded log10 ED50 for c1cnc(OCCN2CCC(Cc3nc4ccccc4n3Cc3ccco3)CC2)nc1 .
a: -1.70

q: Please report the recorded log10 ED50 for Cc1nc2ccccn2c(=O)c1CCN1CCC(Cc2nc3cccnc3n2Cc2ccco2)CC1 .
a: -2.00

q: Please report the recorded log10 ED50 for Fc1ccc(Cn2c(CC3CCN(C4CCCCC4)CC3)nc3cccnc32)cc1 .
a: -1.40

q: Please report the recorded log10 ED50 for COc1ccc(CCN2CCC(Cc3nc4ccncc4n3Cc3ccc(F)cc3)CC2)cc1 .
a: -1.10

q: Please report the recorded log10 ED50 for Cc1nc2n(c(=O)c1CCN1CCC(Cc3nc4cccnc4n3Cc3ccccn3)CC1)CCCC2 .
a: -1.10
